Field: MIC. Provide a value for each of the compounds that follow.
- Test system: Pseudomonas aeruginosa UI-18: Wild-type (PA-7)
- Procedure Text: MIC determination (CLSI), PA-7
- Assay type: cell-based
- Condition Context: Pseudomonas aeruginosa; Table 3; read-out: PA-7 MIC
- Description: The in vitro antibacterial activity of compounds described in the Examples was evaluated by minimum inhibitory concentration (MIC) testing according to Clinical and Laboratory Standards Institute (CLSI, formerly NCCLS) guidelines. See: Clinical and Laboratory Standards Institute. Methods for Dilution Antimicrobial Susceptibility Tests for Bacteria that Grow Aerobically; Approved Standard-Seventh Edition. CLSI document M7-A7 [ISBN 1-56238-587-9]. […]
Give bare numbers, in mg/L.

The cases that follow already have their MIC on record.
[[record]]
compound = "CC(CCc1ccc(OCCc2ccncc2)cc1)(C(=O)NO)S(C)(=O)=O (centres unmarked)"
recorded_endpoint = "MIC"
uom = "mg/L"
value_measured = 32

[[record]]
compound = "CC(CCc1ccc(OCc2ccc(-n3cccn3)cc2)cc1)(C(=O)NO)S(C)(=O)=O (centres unmarked)"
recorded_endpoint = "MIC"
uom = "mg/L"
value_measured = 16

[[record]]
compound = "CC(CCc1ccc(OCc2nc(-c3cccc(F)c3)no2)cc1)(C(=O)NO)S(C)(=O)=O (centres unmarked)"
recorded_endpoint = "MIC"
uom = "mg/L"
value_measured = 32


MIC reported for this compound CC(CCc1ccc(OCc2ccc(S(C)(=O)=O)cc2)cc1)(C(=O)NO)S(C)(=O)=O (centres unmarked) : 8

----------
- Tested on: Acinetobacter baumanii/haemolyticus: Multidrug-resistant clinical isolate (AB-3167)
- Procedure Text: MIC determination (CLSI), AB-3167
- Assay type: cell-based
- Condition Context: Acinetobacter baumanii/haemolyticus multidrug-resistant clinical isolate AB-3167
Recorded Endpoint: AB-3167 MIC

[[record]]
compound = "CC(CCc1ccc(-c2ccc(O)cc2F)cc1)(C(=O)NO)S(C)(=O)=O (centres unmarked)"
recorded_endpoint = "AB-3167 MIC"
value_measured = "≧64 mg/L"

[[record]]
compound = "Cc1cc(OCCO)ccc1-c1ccc(CCC(C)(C(=O)NO)S(C)(=O)=O)cc1 (centres unmarked)"
recorded_endpoint = "AB-3167 MIC"
value_measured = "≧64 mg/L"

[[record]]
compound = "CC(CCc1ccc(-c2ccc3c(c2)OCO3)cc1)(C(=O)NO)S(C)(=O)=O (centres unmarked)"
recorded_endpoint = "AB-3167 MIC"
value_measured = "16 µg/mL"

[[record]]
compound = "CC(CCc1ccc(-c2cccc(F)c2)cc1)(C(=O)NO)S(C)(=O)=O (centres unmarked)"
recorded_endpoint = "AB-3167 MIC"
value_measured = "≧64 mg/L"


Hello, I would appreciate it if you could give AB-3167 MIC for each entry below.
1. CC(CCc1ccc(-c2cc(C(F)(F)F)c(C#N)cn2)cc1)(C(=O)NO)S(C)(=O)=O (centres unmarked)
2. CC(CCc1ccc(-c2cccnc2)cc1)(C(=O)NO)S(C)(=O)=O (racemic)
3. CC(CCc1ccc(-c2ccc(OCCO)cc2)cc1)(C(=O)NO)S(C)(=O)=O (centres unmarked)
4. Cc1ccccc1-c1ccc(CCC(C)(C(=O)NO)S(C)(=O)=O)cc1 (racemic)

**A:**
1: ≧64 mg/L; 2: ≧64 mg/L; 3: ≧64 mg/L; 4: 32 µg/mL
